# study system: Alpha-1,2-mannosidase (BT_2199) (Bacteroides thetaiotaomicron) (UniProt Q8A5N9)
# Sequence (whole entry): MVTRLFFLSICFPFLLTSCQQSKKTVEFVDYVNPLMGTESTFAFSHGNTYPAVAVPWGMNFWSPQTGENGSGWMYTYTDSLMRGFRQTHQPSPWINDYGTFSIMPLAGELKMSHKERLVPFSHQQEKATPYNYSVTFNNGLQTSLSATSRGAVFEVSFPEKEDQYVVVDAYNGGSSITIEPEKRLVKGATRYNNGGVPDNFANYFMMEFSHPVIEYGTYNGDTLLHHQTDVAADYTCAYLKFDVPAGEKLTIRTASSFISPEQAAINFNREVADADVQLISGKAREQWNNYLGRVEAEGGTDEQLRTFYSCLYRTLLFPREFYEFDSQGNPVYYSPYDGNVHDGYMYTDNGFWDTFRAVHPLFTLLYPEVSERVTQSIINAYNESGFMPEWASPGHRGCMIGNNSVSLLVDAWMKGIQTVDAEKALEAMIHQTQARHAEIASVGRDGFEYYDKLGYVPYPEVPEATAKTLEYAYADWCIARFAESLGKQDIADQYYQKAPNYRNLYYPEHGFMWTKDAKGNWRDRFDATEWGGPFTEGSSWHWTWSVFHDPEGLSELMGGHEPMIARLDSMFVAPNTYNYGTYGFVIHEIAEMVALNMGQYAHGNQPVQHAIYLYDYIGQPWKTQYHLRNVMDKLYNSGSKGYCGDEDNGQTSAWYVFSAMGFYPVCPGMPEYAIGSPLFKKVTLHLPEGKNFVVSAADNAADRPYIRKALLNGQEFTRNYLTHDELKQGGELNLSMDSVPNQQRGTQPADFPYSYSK
# procedure summary: Activity of Bacteroides thetaiotaomicron GH92 alpha-mannosidase GH92 alpha-mannosidase 2199 assessed as mannose release at 1 mM after 16 hrs by HPLC relative to untreated control after 16 hrs by HPLC
# Type: protein assay
Activity calls are given as the source filed them. No cut-off for these calls is given here.
measurement kind: Activity

[
  {
    "smiles str": "OC[C@H]1O[C@H](O[C@H]2[C@H](O)[C@H](O)[C@@H](O)O[C@@H]2CO)[C@@H](O)[C@@H](O)[C@@H]1O",
    "observed result": "0.12%"
  },
  {
    "smiles str": "OC[C@H]1O[C@H](OC[C@H]2O[C@H](O)[C@@H](O)[C@@H](O)[C@@H]2O)[C@@H](O)[C@@H](O)[C@@H]1O",
    "observed result": "inactive"
  },
  {
    "smiles str": "OC[C@H]1O[C@H](O[C@H]2[C@@H](O)[C@H](O)[C@@H](CO)O[C@@H]2O)[C@@H](O)[C@@H](O)[C@@H]1O",
    "observed result": "100%"
  },
  {
    "smiles str": "OC[C@H]1O[C@H](O[C@@H]2[C@H](O)[C@@H](O)O[C@H](CO)[C@H]2O)[C@@H](O)[C@@H](O)[C@@H]1O",
    "observed result": "inactive"
  }
]

---

# study system: Alpha-1,2-mannosidase (BT_4092) (Bacteroides thetaiotaomicron) (UniProt Q8A0C9)
# Sequence (Q8A0C9 as listed by the source, change not shown): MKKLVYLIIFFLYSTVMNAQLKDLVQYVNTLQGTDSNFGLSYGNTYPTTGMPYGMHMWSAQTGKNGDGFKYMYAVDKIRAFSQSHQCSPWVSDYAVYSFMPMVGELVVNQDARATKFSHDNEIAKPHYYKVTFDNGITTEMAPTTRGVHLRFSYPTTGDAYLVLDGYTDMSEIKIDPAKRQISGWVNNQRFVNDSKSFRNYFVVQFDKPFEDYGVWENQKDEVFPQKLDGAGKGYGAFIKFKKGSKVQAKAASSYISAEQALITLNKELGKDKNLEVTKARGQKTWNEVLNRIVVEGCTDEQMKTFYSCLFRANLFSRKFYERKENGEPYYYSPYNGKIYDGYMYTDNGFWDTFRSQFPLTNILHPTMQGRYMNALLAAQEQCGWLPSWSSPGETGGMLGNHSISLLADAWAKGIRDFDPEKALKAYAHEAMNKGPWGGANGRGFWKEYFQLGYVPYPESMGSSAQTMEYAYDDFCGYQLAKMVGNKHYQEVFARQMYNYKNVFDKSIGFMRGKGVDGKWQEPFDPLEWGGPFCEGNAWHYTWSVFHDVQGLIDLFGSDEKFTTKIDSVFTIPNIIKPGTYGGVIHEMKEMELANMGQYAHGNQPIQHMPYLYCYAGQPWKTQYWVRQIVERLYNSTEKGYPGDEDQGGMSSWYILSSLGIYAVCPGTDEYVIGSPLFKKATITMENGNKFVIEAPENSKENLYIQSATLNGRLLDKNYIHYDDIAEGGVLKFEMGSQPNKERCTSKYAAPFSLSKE
# procedure summary: Activity of Bacteroides thetaiotaomicron GH92 alpha-mannosidase GH92 alpha-mannosidase 4092 assessed as mannose release at 1 mM after 16 hrs by HPLC relative to untreated control after 16 hrs by HPLC
# Assay type: protein assay
Readings of Activity for the listed compounds
measurement kind: Activity

[
  {
    "smiles str": "OC[C@H]1O[C@H](O[C@H]2[C@@H](O)[C@H](O)[C@@H](CO)O[C@@H]2O)[C@@H](O)[C@@H](O)[C@@H]1O",
    "study system": "Alpha-1,2-mannosidase (BT_4092) (Bacteroides thetaiotaomicron) (UniProt Q8A0C9)",
    "measurement kind": "Activity",
    "observed result": "100%"
  },
  {
    "smiles str": "OC[C@H]1O[C@H](O[C@@H]2[C@H](O)[C@@H](O)O[C@H](CO)[C@H]2O)[C@@H](O)[C@@H](O)[C@@H]1O",
    "study system": "Alpha-1,2-mannosidase (BT_4092) (Bacteroides thetaiotaomicron) (UniProt Q8A0C9)",
    "measurement kind": "Activity",
    "observed result": "0.34%"
  },
  {
    "smiles str": "OC[C@H]1O[C@H](O[C@H]2[C@H](O)[C@H](O)[C@@H](O)O[C@@H]2CO)[C@@H](O)[C@@H](O)[C@@H]1O",
    "study system": "Alpha-1,2-mannosidase (BT_4092) (Bacteroides thetaiotaomicron) (UniProt Q8A0C9)",
    "measurement kind": "Activity",
    "observed result": "0.73%"
  }
]
